biological target: T1, recombinant human CTGF-Fc protein (Creative Biomart) (human); test: SPR (Biacore)
T1 construct: Bought; also called human CTGF with a human IgG1 Fc Tag
T1 sequence (chain, as listed by the source limits assumed): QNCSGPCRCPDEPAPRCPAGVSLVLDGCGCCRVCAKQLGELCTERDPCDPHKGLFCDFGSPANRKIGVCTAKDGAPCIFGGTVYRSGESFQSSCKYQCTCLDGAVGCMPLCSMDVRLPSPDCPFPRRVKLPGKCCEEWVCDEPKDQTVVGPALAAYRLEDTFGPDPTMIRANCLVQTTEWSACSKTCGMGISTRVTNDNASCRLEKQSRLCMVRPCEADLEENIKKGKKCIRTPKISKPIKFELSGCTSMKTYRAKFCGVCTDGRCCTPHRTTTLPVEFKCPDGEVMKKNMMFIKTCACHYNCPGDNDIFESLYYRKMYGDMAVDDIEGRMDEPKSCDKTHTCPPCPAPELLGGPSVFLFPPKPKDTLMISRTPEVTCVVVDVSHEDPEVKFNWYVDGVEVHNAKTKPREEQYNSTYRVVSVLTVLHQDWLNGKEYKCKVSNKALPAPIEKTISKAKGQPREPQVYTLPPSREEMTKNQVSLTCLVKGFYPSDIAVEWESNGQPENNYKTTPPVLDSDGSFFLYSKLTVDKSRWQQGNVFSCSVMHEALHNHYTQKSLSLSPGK
Parameter kon: see the listing below.

Before answering, review these 6 worked examples.
| Binder | Value Type | Assay Value |
| --- | --- | --- |
| lipocalin mutein of SEQ ID NO: 27 (designed binder, also called hNGAL mutein; not shown: C-terminal His-tag) QDSTSDLIPAPPLSKVPLQQNFQDNQFQGKWYVVGLAGNYRLREDKDPSKMGATIYELKEDKSYDVTQVQFDDKKCLYVIETFVPGSQPGEFTLGAIKSYPGLTSQLVRVVSTNYNQHAMVFLKKVYGSEEYFHITLYGRTKELTSELKENFIRFSKSLGLPENHIVFPVPIDQCIDG | kon | 30500 M⁻¹ s⁻¹ |
| lipocalin mutein of SEQ ID NO: 23 (designed binder, also called hNGAL mutein) QDSTSDLIPAPPLSKVPLQQNFQDNQFQGKWYVVGVAGNAILRPDKQPAKMFATIYELKEDKSYDVTSVRFEAKSCKYTIKTFVPGSQPGEFTSGQIKSAPGQTSTLVRVVSTNYNQHAMVFFKHVSQNREIFVITLYGRTKELTSELKENFIRFSKSLGLPENHIVFPVPIDQCIDG | kon | 122000 M⁻¹ s⁻¹ |
| lipocalin mutein of SEQ ID NO: 16 (designed binder, also called hNGAL mutein; not shown: C-terminal His-tag) QDSTSDLIPAPPLSKVPLQQNFQDNQFQGKWYVVGLAGNAILRTDKQPAKMFATIYELKEDKSYDVTSVRFEAKSCVYTIKTFVPGSQPGEFTAGNIKSAPGQTSTLVRVVSTNYNQHAMVFFKHVSQNREFFVITLYGRTKELTSELKENFIRFSKSLGLPENHIVFPVPIDQCIDG | kon | 92300 M⁻¹ s⁻¹ |
| lipocalin mutein of SEQ ID NO: 14 (designed binder, also called hNGAL mutein; not shown: C-terminal His-tag) QDSTSDLIPAPPLSKVPLQQNFQDNQFQGKWYVVGLAGNAILREDKYPAKMFATIYELKEDKSYDVTSVRFEAKSCIYTIKTFVPGSQPGEFTRGNIKSAPGQTSTLVRVVSTNYNQHAMVFFKHVSQNREIFVITLYGRTKELTSELKENFIRFSKSLGLPENHIVFPVPIDQCIDG | kon | 102000 M⁻¹ s⁻¹ |
| lipocalin mutein of SEQ ID NO: 32 (designed binder, also called hNGAL mutein; not shown: C-terminal His-tag) QDSTSDLIPAPPLSKVPLQQNFQDNQFQGKWYVVGWAGNVKLREDKQPFKMSATIYELKEDKSYDVTEVVFEQKKCHYIIKTFVPGSQPGEFTLSPISSSPGLVSHLVRVVSTNYNQHAMVFFKKVHQNREFFWITLYGRTKELTSELKENFIRFSKSLGLPENHIVFPVPIDQCIDG | kon | 109000 M⁻¹ s⁻¹ |
| lipocalin mutein of SEQ ID NO: 21 (designed binder, also called hNGAL mutein; not shown: C-terminal His-tag) QDSTSDLIPAPPLSKVPLQQNFQDNQFQGKWYVVGLAGNAILREDKQPAKMFATIYELKEDKSYDVTSVRFEAKSCSYTIKTFVPGSQPGEFTAGNIKSAPGQTSTLVRVVSTNYNQHAMVFFKAVRGARESFNIALYGRTKELTSELKENFIRFSKSLGLPENHIVFPVPIDQCIDG | kon | 127000 M⁻¹ s⁻¹ |

Okay, next one:
Would you mind telling me what kon value was observed for lipocalin mutein of SEQ ID NO: 22 (designed binder, also called hNGAL mutein; not shown: C-terminal His-tag) QDSTSDLIPAPPLSKVPLQQNFQDNQFQGKWYVVGIAGNAILRVDKQPAKMFATIYELKEDKSYDVTSVRFEAKSCVYTIKTFVPGSQPGEFTAGNIKSAPGQTSTLVRVVSTNYNQHAMVFFKHVSQNREIFVITLYGRTKELTSELKENFIRFSKSLGLPENHIVFPVPIDQCIDG ? 142000 M⁻¹ s⁻¹
